From: patent US20220339144A1

Listed compounds paired with reported EC50
# Target Or Test System: AMPKα1β1γ1 (Homo sapiens, UniProt Q13131+Q9Y478)
# Sequence (Q13131 whole entry): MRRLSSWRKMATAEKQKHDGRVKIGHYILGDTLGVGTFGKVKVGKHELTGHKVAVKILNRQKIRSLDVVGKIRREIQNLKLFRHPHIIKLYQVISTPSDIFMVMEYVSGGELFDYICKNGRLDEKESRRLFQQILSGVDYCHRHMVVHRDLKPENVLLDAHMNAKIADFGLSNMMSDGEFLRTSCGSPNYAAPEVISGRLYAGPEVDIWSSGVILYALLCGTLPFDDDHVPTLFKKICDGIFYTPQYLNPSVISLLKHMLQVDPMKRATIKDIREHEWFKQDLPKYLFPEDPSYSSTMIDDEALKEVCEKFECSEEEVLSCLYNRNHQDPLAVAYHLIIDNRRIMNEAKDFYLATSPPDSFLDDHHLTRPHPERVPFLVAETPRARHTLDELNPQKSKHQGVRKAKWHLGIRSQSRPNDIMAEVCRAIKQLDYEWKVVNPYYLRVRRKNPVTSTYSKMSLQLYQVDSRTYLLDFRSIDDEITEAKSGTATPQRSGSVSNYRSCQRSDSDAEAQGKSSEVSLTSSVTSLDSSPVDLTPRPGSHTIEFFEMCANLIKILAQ
# Sequence (Q9Y478 whole entry): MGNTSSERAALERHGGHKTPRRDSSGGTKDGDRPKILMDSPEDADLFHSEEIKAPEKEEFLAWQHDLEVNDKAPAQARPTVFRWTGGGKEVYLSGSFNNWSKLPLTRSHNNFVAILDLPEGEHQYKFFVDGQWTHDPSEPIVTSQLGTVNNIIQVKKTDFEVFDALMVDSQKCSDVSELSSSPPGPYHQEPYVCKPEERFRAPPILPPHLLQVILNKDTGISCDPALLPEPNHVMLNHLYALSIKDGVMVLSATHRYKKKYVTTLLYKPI
# Sequence (P54619 whole entry partner): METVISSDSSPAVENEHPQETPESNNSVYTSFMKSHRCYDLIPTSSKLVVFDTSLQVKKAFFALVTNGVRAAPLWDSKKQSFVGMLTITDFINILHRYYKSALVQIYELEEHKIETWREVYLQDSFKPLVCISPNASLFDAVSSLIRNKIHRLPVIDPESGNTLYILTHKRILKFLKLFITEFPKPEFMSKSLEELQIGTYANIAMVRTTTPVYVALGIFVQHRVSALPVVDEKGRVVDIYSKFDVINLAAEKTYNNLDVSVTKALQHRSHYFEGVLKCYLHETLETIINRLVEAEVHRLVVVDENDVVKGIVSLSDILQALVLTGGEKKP
# Assay Details: AMPKα1β1γ1 biochemical assay (LabChip EZ Reader mobility shift)
# Condition: EC50 of Table 1; activation, normalized to DMSO vehicle control; read-out: Human AMPK AMPKα1β1γ1 EC50

Examples with their reported EC50 follow.
| Compound | Readout Kind | Observed Result |
| --- | --- | --- |
| COc1nc(N2C[C@H]3CN(C(C)=O)C[C@H]3C2)ccc1-c1cc2c(C(=O)O)c[nH]c2cc1Cl | EC50 | ≤ 0.05 µM |
| COc1nc(N2C[C@@H]3COC[C@H]3C2)ccc1-c1cc2c(C(=O)O)c[nH]c2cc1Cl (racemic) [Example 32] | EC50 | ≤ 0.05 µM |
| COc1nc(N2CCC3(CCOCC3)C2)ccc1-c1cc2c(C(=O)O)c[nH]c2cc1Cl | EC50 | 0.1 to 0.25 µM |

Can you look up the measured EC50 of COc1nc(N2C[C@@H]3[C@@H](O)[C@@H]3C2)ccc1-c1cc2c(C(=O)O)c[nH]c2cc1Cl for me? ≤ 0.05 µM

Can you look up the measured EC50 of COc1nc(N2CC3(CCS3(=O)=O)C2)ccc1-c1cc2c(C(=O)O)c[nH]c2cc1Cl for me? ≤ 0.05 µM

Can you look up the measured EC50 of COc1nc(N2CC3(COC3)C2)ccc1-c1cc2c(C(=O)O)c[nH]c2cc1F for me? 0.1 to 0.25 µM

Can you look up the measured EC50 of COc1nc(N2CC3(CCNC3=O)C2)ccc1-c1cc2c(C(=O)O)c[nH]c2cc1Cl for me? ≤ 0.05 µM

====

# Target Or Test System: AMPKα1β1γ1 (Homo sapiens, UniProt Q13131+Q9Y478)
# Assay Details: AMPKα1β1γ1 biochemical assay (LabChip EZ Reader mobility shift)
# Condition: EC50 of Table 1; activation, normalized to DMSO vehicle control; read-out: Human AMPK AMPKα1β1γ1 EC50
pEC50: −log10 of the molar value.
Listed molecules paired with reported pEC50

| Molecule | Target Or Test System | pEC50 |
| --- | --- | --- |
| COc1nc(N2CCC3(COC3)C2)ccc1-c1cc2c(C(=O)O)c[nH]c2cc1Cl | AMPKα1β1γ1 (Homo sapiens, UniProt Q13131+Q9Y478) | ≥ 7.30 |
| COc1nc(N2CC3(CC(N)C3)C2)ccc1-c1cc2c(C(=O)O)c[nH]c2cc1Cl | AMPKα1β1γ1 (Homo sapiens, UniProt Q13131+Q9Y478) | ≥ 7.30 |
| COC[C@@H]1[C@H]2CN(c3ccc(-c4cc5c(C(=O)O)c[nH]c5cc4Cl)c(OC)n3)C[C@@H]12 | AMPKα1β1γ1 (Homo sapiens, UniProt Q13131+Q9Y478) | ≥ 7.30 |
| COc1nc(N2C[C@H]3COC[C@H]3C2)ccc1-c1cc2c(C(=O)O)c[nH]c2cc1Cl | AMPKα1β1γ1 (Homo sapiens, UniProt Q13131+Q9Y478) | 7.00 to 7.30 |

Can you look up the measured pEC50 of COc1nc(N2CC3CCC(C2)O3)ccc1-c1cc2c(C(=O)O)c[nH]c2cc1Cl (racemic) for me? 6.60 to 7.00

Can you look up the measured pEC50 of COc1nc(N2CC3(CC3)C2)ccc1-c1cc2c(C(=O)O)c[nH]c2cc1Cl for me? ≥ 7.30

Can you look up the measured pEC50 of COc1nc(N2CCC3(CCO3)CC2)ccc1-c1cc2c(C(=O)O)c[nH]c2cc1Cl (racemic) for me? 7.00 to 7.30

Can you look up the measured pEC50 of COc1nc(N2CC3CC3(O)C2)ccc1-c1cc2c(C(=O)O)c[nH]c2cc1Cl (racemic) for me? ≥ 7.30

Can you look up the measured pEC50 of COc1nc(N2C[C@@H]3[C@H](C2)[C@H]3OC)ccc1-c1cc2c(C(=O)O)c[nH]c2cc1Cl for me? 7.00 to 7.30

Can you look up the measured pEC50 of COc1nc(N2C[C@@H]3COC[C@H]3C2)ccc1-c1cc2c(C(=O)O)c[nH]c2cc1Cl [Example 33] for me? ≥ 7.30

Can you look up the measured pEC50 of COc1nc(N2CC3(CC(NC(=O)OC(C)(C)C)C3)C2)ccc1-c1cc2c(C(=O)O)c[nH]c2cc1Cl for me? ≥ 7.30

Can you look up the measured pEC50 of COc1nc(N2CC3CC2CO3)ccc1-c1cc2c(C(=O)O)c[nH]c2cc1Cl (racemic) for me? 6.60 to 7.00

Can you look up the measured pEC50 of COc1nc(N2CC3CCC2CO3)ccc1-c1cc2c(C(=O)O)c[nH]c2cc1Cl (racemic) for me? 6.60 to 7.00

Can you look up the measured pEC50 of COc1nc(N2C[C@H]3COC[C@@H]3C2)ccc1-c1cc2c(C(=O)O)c[nH]c2cc1Cl for me? ≥ 7.30

Can you look up the measured pEC50 of COc1nc(N2CC3(CCOC3)C2)ccc1-c1cc2c(C(=O)O)c[nH]c2cc1Cl for me? ≥ 7.30
